Attribute: Kd
- experimental-system: H3 hemagglutinin (A/Wyoming/03/2003) (influenza A virus A/Wyoming/03/2003 (H3N2))
- method: ELISA on coated HA, relative Kd (4-parameter fit)
outcome-measure: Kd (nM)

binder	recorded-measurement
Ab 031 (antibody, V domains shown) VH: EVQLLESGGGLVKPGQSLKLSCAASGFTFTSYAMHWVRQPPGKGLEWVAVVSYDGNYKYYADSVQGRFTISRDNSKNTLYLQMNSLRAEDTAVYYCAKDSRLRSLLYFEWLSQGYFNPWGQGTTLTVSS VL: DIQMTQSPSSLSASVGDRVTITCRSSQSITFNYKNYLAWYQQKPGKAPKLLIYWGSYLESGVPSRFSGSGSGTDFTLTISSLQPEDFATYYCQQHYRTPPSFGQGTKVEIK	0.331
Ab 004 (antibody, V domains shown) VH: QVQLLETGGGLVKPGQSLKLSCAASGFTFTSYAMHWVRQPPGKGLEWVAVVSYDGNYKYYADSVQGRFTISRDNSKNTLYLQMNSLRAEDTAVYYCAKDSRLRSLLYFEWLSQGYFNPWGQGTTLTVSS VL: DIVMTQSPDTLAVTLGERATIQCKSSQTVTFNYKNYLAWYQQKPGQPPKLLIYWASTRESGVPDRFSGSGSGTDFTLTITSLQAEDVAVYYCQQHYRTPPSFGQGTKLDIK	0.272
Ab 037 (antibody, V domains shown) VH: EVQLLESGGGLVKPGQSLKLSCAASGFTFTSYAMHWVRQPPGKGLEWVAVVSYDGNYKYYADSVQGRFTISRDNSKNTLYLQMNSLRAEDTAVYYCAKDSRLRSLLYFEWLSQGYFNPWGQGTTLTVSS VL: DIQMTQSPSSLSASVGDRVTITCRSSQSITFNYKNYLGWYQQKPGKAPKLLIYWGSYLESGVPSRFSGSGSGTDFTLTISSLQPEDFATYYCQQHYRTPPSFGQGTKVEIK	0.512
Ab 038 (antibody, V domains shown) VH: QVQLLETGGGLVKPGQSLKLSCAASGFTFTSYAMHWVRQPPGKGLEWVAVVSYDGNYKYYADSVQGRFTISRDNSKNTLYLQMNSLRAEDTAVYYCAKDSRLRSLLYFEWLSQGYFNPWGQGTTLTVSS VL: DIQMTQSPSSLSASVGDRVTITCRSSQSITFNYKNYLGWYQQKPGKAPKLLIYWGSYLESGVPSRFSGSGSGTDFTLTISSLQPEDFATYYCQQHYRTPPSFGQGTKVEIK	0.515

From: patent US20220204592A1
